Biological target: PARP1 (poly ADP-ribose polymerase 1) (Homo sapiens, UniProt P09874)
Sequence (P09874 2-1014): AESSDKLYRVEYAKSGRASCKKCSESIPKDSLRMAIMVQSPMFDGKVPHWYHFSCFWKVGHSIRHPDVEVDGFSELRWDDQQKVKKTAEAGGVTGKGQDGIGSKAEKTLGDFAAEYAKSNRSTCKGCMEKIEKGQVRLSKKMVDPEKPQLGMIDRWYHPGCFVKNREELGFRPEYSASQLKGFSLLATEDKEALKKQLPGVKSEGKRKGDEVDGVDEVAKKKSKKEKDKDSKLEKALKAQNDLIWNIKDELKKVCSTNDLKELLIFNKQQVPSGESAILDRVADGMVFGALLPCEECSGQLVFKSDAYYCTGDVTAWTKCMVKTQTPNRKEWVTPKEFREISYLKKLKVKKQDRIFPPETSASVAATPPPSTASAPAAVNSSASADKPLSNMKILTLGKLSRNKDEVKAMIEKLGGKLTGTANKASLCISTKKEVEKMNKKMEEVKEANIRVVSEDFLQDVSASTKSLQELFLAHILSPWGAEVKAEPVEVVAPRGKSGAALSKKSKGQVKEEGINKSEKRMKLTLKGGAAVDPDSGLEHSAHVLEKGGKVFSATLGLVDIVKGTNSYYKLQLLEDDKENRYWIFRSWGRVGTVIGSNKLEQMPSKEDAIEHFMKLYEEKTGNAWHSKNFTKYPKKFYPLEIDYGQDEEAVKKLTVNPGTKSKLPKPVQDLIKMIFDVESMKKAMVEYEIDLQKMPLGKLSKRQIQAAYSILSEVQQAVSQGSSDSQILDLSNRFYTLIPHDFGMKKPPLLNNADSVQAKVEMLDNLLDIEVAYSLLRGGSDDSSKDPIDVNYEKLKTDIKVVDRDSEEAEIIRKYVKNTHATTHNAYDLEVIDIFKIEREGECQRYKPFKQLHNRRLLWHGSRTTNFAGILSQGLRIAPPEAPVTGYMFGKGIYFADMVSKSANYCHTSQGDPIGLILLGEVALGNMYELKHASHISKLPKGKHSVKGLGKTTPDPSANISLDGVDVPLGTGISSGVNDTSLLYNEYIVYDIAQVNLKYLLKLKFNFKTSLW
Test: PARP1 enzymatic ELISA (histone-coated plates, biotinylated NAD+, HRP luminescence)
Type: biochemical
Details: read-out: IC50
observation-type: pIC50
The quantity pIC50 is defined as the negative base-10 logarithm of the molar concentration.

Please fill in: pIC50 reported for COc1ccc2ccc(=O)oc2c1CC(O)C(C)(C)O (stereo not shown) [compound 4, meranzin hydrate] = 4.17

====

Biological target: PARP1 (poly ADP-ribose polymerase 1) (Homo sapiens)
Test: PARP1 enzymatic ELISA (histone-coated plates, biotinylated NAD+, HRP luminescence)
Type: biochemical
Here, each record is paired with measured IC50 data.
All answers are understood in µM, so give the number only.

[
  {
    "molecule": "COc1c2ccoc2nc2c(O)cccc12 [compound 3, 8-hydroxy dictanmnine]",
    "observation-type": "IC50",
    "readout-number": 44.9
  }
]

Please fill in: IC50 reported for COc1ccc2ccc(=O)oc2c1CC=C(C)C = 76.5

Please fill in: IC50 reported for COc1ccc2cc3[n+](cc2c1OC)CCc1cc(O)c(O)cc1-3 = 2
